Source listed as paper PMC9144902.

Tested on: EB–DNA adduct (CT DNA)
Assay explanation: Competitive study with EB (EB–DNA fluorescence quenching)
Format: binding, calf
Setup conditions: EB–DNA adduct
Readout name: Ksv, Stern–Volmer constant

Here is how some compounds turned out for Ksv, Stern–Volmer constant.
Compound	Ksv, Stern–Volmer constant
CN1CCN(c2c(F)cc3c(=O)c(C(=O)[O-])cn(CCF)c3c2F)CC1.CN1CCN(c2c(F)cc3c(=O)c(C(=O)[O-])cn(CCF)c3c2F)CC1.[Ni+2].c1ccc(Nc2ccccn2)nc1 [complex 18, [Ni(flrx)2(bipyam)]]	3.02(±0.13) × 10^5 M^–1
CN1CCN(c2c(F)cc3c(=O)c(C(=O)[O-])cn(CCF)c3c2F)CC1.[Cl-].[Cu+2].c1cnc2c(c1)ccc1cccnc12 [complex 8, [Cu(flrx)(phen)Cl]]	3.25(±0.08) × 10^5 M^–1
CN1CCN(c2c(F)cc3c(=O)c(C(=O)[O-])cn(CCF)c3c2F)CC1.CN1CCN(c2c(F)cc3c(=O)c(C(=O)[O-])cn(CCF)c3c2F)CC1.[Co+2].c1ccc(-c2ccccn2)nc1 [complex 15, [Co(flrx)2(bipy)]]	4.69(±0.09) × 10^5 M^–1

For this compound ( CN1CCN(c2c(F)cc3c(=O)c(C(=O)[O-])cn(CCF)c3c2F)CC1.[Cl-].[Cu+2].c1ccc(Nc2ccccn2)nc1 [complex 7, [Cu(flrx)(bipyam)Cl]] ), measured Ksv, Stern–Volmer constant is 3.44(±0.06) × 10^5 M^–1

For this compound ( CN1CCN(c2c(F)cc3c(=O)c(C(=O)[O-])cn(CCF)c3c2F)CC1.CN1CCN(c2c(F)cc3c(=O)c(C(=O)[O-])cn(CCF)c3c2F)CC1.[Co+2].c1cnc2c(c1)ccc1cccnc12 [complex 17, [Co(flrx)2(phen)]] ), measured Ksv, Stern–Volmer constant is 3.56(±0.10) × 10^5 M^–1

###

Test system: bovine serum albumin (BSA) (Bos taurus)
Construct: purchased
Sequence (P02769 25-607): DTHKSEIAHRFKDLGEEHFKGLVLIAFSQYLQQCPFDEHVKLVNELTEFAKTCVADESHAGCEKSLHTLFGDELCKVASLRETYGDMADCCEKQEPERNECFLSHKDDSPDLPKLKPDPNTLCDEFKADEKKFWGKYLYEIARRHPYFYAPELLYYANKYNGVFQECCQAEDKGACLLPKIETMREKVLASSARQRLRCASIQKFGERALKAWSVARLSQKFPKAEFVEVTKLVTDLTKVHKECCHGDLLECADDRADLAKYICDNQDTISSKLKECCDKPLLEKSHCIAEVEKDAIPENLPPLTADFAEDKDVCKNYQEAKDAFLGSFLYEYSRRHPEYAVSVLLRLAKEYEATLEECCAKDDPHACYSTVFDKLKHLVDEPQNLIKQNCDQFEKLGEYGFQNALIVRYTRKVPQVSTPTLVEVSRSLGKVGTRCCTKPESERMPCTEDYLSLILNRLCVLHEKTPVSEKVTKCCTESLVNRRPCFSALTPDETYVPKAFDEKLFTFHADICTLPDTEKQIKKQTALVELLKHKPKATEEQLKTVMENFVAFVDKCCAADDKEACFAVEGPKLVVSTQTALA
Assay explanation: Albumin binding by tryptophan fluorescence emission quenching
Setup conditions: BSA 3 μM, buffer pH 7.0, Scatchard equation
Below, each of the compounds is paired with its reported K(BSA), BSA-binding constant value.

Here is how some compounds turned out for K(BSA), BSA-binding constant.
Compound	Test system	Result
CN1CCN(c2c(F)cc3c(=O)c(C(=O)[O-])cn(CCF)c3c2F)CC1.CN1CCN(c2c(F)cc3c(=O)c(C(=O)[O-])cn(CCF)c3c2F)CC1.[Mn+2].c1cnc2c(c1)ccc1cccnc12 [complex 11, [Mn(flrx)2(phen)]]	bovine serum albumin (BSA) (Bos taurus)	1.09(±0.03) × 10^5 M^−1
CN1CCN(c2c(F)cc3c(=O)c(C(=O)[O-])cn(CCF)c3c2F)CC1.CN1CCN(c2c(F)cc3c(=O)c(C(=O)[O-])cn(CCF)c3c2F)CC1.[Co+2].c1ccc(Nc2ccccn2)nc1 [complex 16, [Co(flrx)2(bipyam)]]	bovine serum albumin (BSA) (Bos taurus)	1.44(±0.04) × 10^5 M^−1

bovine serum albumin (BSA) (Bos taurus) data for CN1CCN(c2c(F)cc3c(=O)c(C(=O)[O-])cn(CCF)c3c2F)CC1.[Cl-].[Cu+2].c1ccc(-c2ccccn2)nc1 [complex 6, [Cu(flrx)(bipy)Cl]] ; its K(BSA), BSA-binding constant: 6.12(±0.33) × 10^4 M^−1
